assay: Half-life in plasma; conditions: unit inferred, unit assumed
The entries below are paired with their reported t1/2 plasma.

CCCNC(=O)C(=O)[C@H](CC)NC(=O)[C@H](CC(C)C)NC(=O)OCc1ccccc1 [Z-Leu-Abu-CONH-nPr, Z--Leu--Abu--CONH--nPr]
> 60 min
CCCCNC(=O)C(=O)C(CC)NC(=O)C(CC(C)C)NC(=O)OCc1ccccc1 (stereo not drawn) [Z-Leu-Abu-CONH-nBu, Z--Leu--Abu--CONH--nBu]
> 60 min
CCNC(=O)C(=O)[C@H](Cc1ccccc1)NC(=O)[C@H](CC(C)C)NC(=O)OCc1ccccc1 [Z-Leu-Phe-CONH-Et, Z--Leu--Phe--CONH--Et]
> 60 min
CC(C)CNC(=O)C(=O)[C@H](Cc1ccccc1)NC(=O)[C@H](CC(C)C)NC(=O)OCc1ccccc1 [Z-Leu-Phe-CONH-iBu, Z--Leu--Phe--CONH--iBu]
> 60 min
CCC(NC(=O)C(CC(C)C)NC(=O)OCc1ccccc1)C(=O)C(=O)NCc1ccccc1 (stereo not drawn) [Z-Leu-Abu-CONH-Bzl, Z--Leu--Abu--CONH--Bzl]
> 60 min

Inquiry: # t1/2 plasma lookup, item CCC(NC(=O)C(CC(C)C)NC(=O)OCc1ccccc1)C(=O)C(=O)O (stereo not drawn) [Z-Leu-Abu-COOH, reference compound]
Reply text: > 60 min

Inquiry: Also CCCC(NC(=O)C(CC(C)C)NC(=O)OCc1ccccc1)C(=O)C(=O)OCC (stereo not drawn) [Z-Leu-Nva-COOEt, reference compound] ?
Reply text: 2.8 min

Inquiry: Also CC(C)C[C@H](NC(=O)OCc1ccccc1)C(=O)N[C@@H](Cc1ccccc1)C(=O)C(=O)NCCc1ccccc1 [Z-Leu-Phe-CONH(CH2)2 Ph, Z--Leu--Phe--CONH--(CH2)2 Ph] ?
Reply text: > 60 min
